Assay: Restrictive medium S. cerevisiae growth inhibition, OD615, pilot screen of yeast lifespan reduction project, restrictive growth control (AID 706);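 also: modified DeaD lifespan yeast strain shifted to restrictive glucose medium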
Settings: OD615, 48 h, at 10 µM, stronger effect = higher value
ENDPOINT: growth inhibition (%)

In [3]: df
Out[3]:
                                    molecule  units  meas_value
 0          O=C(Nc1cc(=O)c2ccccc2o1)N1CCOCC1      %       -7.41
 1              Cc1cc(Nc2cccc(F)c2)n2ncnc2n1      %        12.3
 2  COCCNC(=O)CN1C(=O)CSc2cc(S(=O)(=O)N3CCCCCC3)ccc21      %       -4.12
 3  O=C(Nc1ccccc1C(=O)N1CCN(Cc2ccccc2)CC1)c1ccccn1      %       -10.1
 4        Cc1cc(Nc2cc(C(=O)O)ccc2C)n2ncnc2n1      %       -2.32
 5  CN1CCN(C(=O)c2cn(C)c3ccc(S(=O)(=O)N(C)C4CCCCC4)cc3c2=O)CC1      %       -13.2
 6  N#CCCN1CCN(S(=O)(=O)c2ccc(S(=O)(=O)N3CCCC3)cc2)CC1      %        7.04
 7  Cc1c(C(=O)NCCCN2CCOCC2)sc2nc(-c3ccccc3)cn12      %       -11.8
 8  CC(=O)c1cccc(NC2c3ccccc3C(=O)N2Cc2ccc3c(c2)OCO3)c1 (centres undefined)      %         7.7
 9  Cc1c2cnn(-c3ccccc3)c(=O)c2c(C)n1CCCC(=O)N1CCN(C)CC1      %       -7.72
10  CC(C)c1ccc(NC(=O)C(c2ccccc2)N2CCOCC2)cc1 (centres undefined)      %       0.125
11  COc1ccc(NC(=O)CCCC2=NS(=O)(=O)c3ccccc3N2)cc1      %       -7.47
12  Oc1c(C(c2ccccc2)N2CCN(Cc3ccccc3)CC2)sc2ncnn12 (centres undefined)      %       -5.08
13  COCCNC(=O)Cn1cnc2sc(C)c(S(=O)(=O)N3CCC(C)CC3)c2c1=O      %       -3.64
14      O=c1sc(N2CCN(c3ccccc3F)CC2)nc2ccsc12      %       -8.01
15     O=C(CCS(=O)(=O)c1cccc2nonc12)N1CCOCC1      %       -14.3
16  O=C(NCCO)c1ccc(-c2nnc(N3CCOCC3)c3ccccc23)cc1      %       -14.4
17  COc1cccc(CN2CCNC(=O)C2CC(=O)O)c1OC (centres undefined)      %       -12.7
18   CN(C)c1nc(Oc2ccc(/C=N/O)cc2)nc(N(C)C)n1      %        4.05
19      COc1ccc(OC)c2c(C)cc(NCCN3CCOCC3)nc12      %       -2.92
20  COc1ccc(S(=O)(=O)N2CCC(C(=O)N3CCc4ccccc4C3)CC2)cc1OC      %        1.26
21  COc1c(C)cc(Br)cc1C(=O)Nc1cccc(-c2nc3ncccc3o2)c1      %          15
22        c1ccc(Cn2nnc3c(N4CCOCC4)ncnc32)cc1      %       -25.2
23  COc1ccc2c(c1OC)C(=O)OC2Nc1ccccn1 (centres undefined)      %       -7.84
24  O=C1C2C3C=CC(CO)(O3)C2C(=O)N1c1ccccc1-c1ccccc1 (centres undefined)      %         100
25           COc1ccc(NC(=O)Nc2cccc(OC)c2)cc1      %       -19.4
26  CCOc1ccc(OCC)c(NC(=O)CN2CCC(NC(=O)c3cccc(F)c3)CC2)c1      %       -12.3
27  Cc1nn(C)c(C)c1S(=O)(=O)N(CC(=O)NCc1cccs1)c1ccc(C(C)C)cc1      %       -13.5
28  O=S(=O)(c1ccc(Br)cc1)N1CCn2c(nc3ccccc32)C1      %       -3.65
